Target or system: Hexose transporter 1 (Plasmodium falciparum)
Assay remarks: ST_JUDE_LEISH: Cytotoxicity at 2uM final concentration against transgenic Leishmania Mexicana promastigotes LmPfHT that are glucose transport deficient and complemented with the Plasmodium falciparum hexose transporter. Activity is measured by DNA content using SYBR green in vitro
Type: functional
Readout label: inhibition (%)

Molecule: CCCCc1cc(NCc2ccncc2)nc(Nc2ccc(C)cc2)n1
Recorded value: 5.93

Molecule: CC(Oc1ccc(NC(=O)c2cccs2)cc1)C(=O)c1ccc(Cl)cc1 (stereo not drawn)
Recorded value: 10

Molecule: Nc1ccc2[nH]cc(C3CCN(CC4CCC(NC(=O)/C=C/c5ccccc5Cl)CC4)CC3)c2n1 (stereo not drawn)
Recorded value: 3.23

Molecule: CC1(C)NC(N)=NC(=N)N1OCCCOc1cc(Cl)cc(Cl)c1
Recorded value: 7.49

Molecule: O=C(NCc1ccccc1)c1nn(CCCN2CCC(N3CCCC3)CC2)cc1-c1ccc(Cl)c(Cl)c1
Recorded value: 0.77

Molecule: CC(C)C[C@H](NC(=O)c1ccc(OCCN2CCOCC2)cc1)C(=O)N[C@H](/C=N/NC(=O)OC(C)(C)C)CCc1ccccc1
Recorded value: 8.52

Molecule: Cc1ccccc1CN1CCCN(Cc2ccc(C(=O)Nc3ccc(C(C)(C)C)cc3)cc2)CC1
Recorded value: 3.39

Molecule: CC[C@]1(C)C[C@@H](NC(=O)NC(=O)c2ccc(OC)cc2)[C@]2(C)[C@H](C)CC[C@]3(CCC(=O)[C@H]32)[C@@H](C)[C@@H]1OC(=O)NC(=O)c1ccc(OC)cc1
Recorded value: 5.47

###

Target or system: Solute carrier family 2, facilitated glucose transporter member 1 (Homo sapiens) (UniProt P11166)
Sequence (P11166 whole entry): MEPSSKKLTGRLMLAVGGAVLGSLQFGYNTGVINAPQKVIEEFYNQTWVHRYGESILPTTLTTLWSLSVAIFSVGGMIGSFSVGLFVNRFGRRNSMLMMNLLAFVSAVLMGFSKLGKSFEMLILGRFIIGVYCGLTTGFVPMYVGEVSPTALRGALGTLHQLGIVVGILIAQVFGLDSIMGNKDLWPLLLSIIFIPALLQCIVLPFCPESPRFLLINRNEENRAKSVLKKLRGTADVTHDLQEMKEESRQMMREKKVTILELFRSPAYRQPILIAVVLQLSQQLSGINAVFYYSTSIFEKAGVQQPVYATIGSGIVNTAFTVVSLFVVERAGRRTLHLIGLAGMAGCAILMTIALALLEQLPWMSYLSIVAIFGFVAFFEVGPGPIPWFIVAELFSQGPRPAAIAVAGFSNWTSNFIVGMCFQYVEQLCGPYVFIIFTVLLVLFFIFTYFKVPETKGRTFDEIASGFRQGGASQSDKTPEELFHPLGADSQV
Assay remarks: ST_JUDE_LEISH: Cytotoxicity at 2uM final concentration against transgenic Leishmania Mexicana promastigotes LmGLUT1 that are glucose transport deficient and complemented with the human glucose transporter GLUT1. Activity is measured by DNA content using SYBR green in vitro
Type: functional

Compound: CC(C)(CNCc1ccc(F)c(F)c1)c1nc(-c2ccc(Cl)c(O)c2)c(-c2ccncc2)[nH]1
inhibition / %: 2.43
//
Compound: CCOc1ccc(C2CCN(CCCCNC(=O)c3ccc(NC(=O)c4ccc(Cl)cc4)cc3)CC2)c(OCC)c1
inhibition / %: 4.52
//
Compound: CC(=O)Nc1cccc(C(=O)Nc2cccc(-c3csc(-c4nc5ccccc5[nH]4)c3)c2)c1
inhibition / %: 4.93
//
Compound: O=[N+]([O-])c1ccc(-n2nc(-c3cccnc3)n(Cc3ccco3)c2=S)c(Cl)c1
inhibition / %: 1.31
//
Compound: COc1ccc2c(c1)ncn2-c1cc(OCc2ccncc2Br)c(C(N)=O)s1
inhibition / %: 1.09
//
Compound: Cc1cccn2c(=O)c3cc(C(=O)NC(C)c4ccccc4)c(=N)n(CCN4CCOCC4)c3nc12 (stereo not given)
inhibition / %: 3.65
//
Compound: COc1cc(CCON2C(N)=NC(N)=NC2(C)C)cc(OC)c1OC
inhibition / %: 2.34
//
Compound: CC(=O)c1ccc(-c2ccccc2)s1
inhibition / %: 2.16
//
Compound: CCN(CC)CCN(Cc1ccc(-c2ccc(C(F)(F)F)cc2)cc1)C(=O)Cn1c(CCc2ccccc2F)nc(=O)c2ccccc21
inhibition / %: 3.8
//
Compound: c1ccc(-c2ccc(-c3csc(Nc4ccncc4)n3)cc2)cc1
inhibition / %: 0.44
//
Compound: COc1ccc(Nc2nccc(N3CCC(NC(=O)c4cc5ccccc5s4)C3)n2)cc1 (stereo not given)
inhibition / %: -3.12
//
Compound: O=C(Nc1cccc(-c2cccc(F)c2)c1)C1CCN(Cc2ccc(O)cc2)CC1
inhibition / %: 2.54
//
Compound: Cc1[nH]c(C)c(-c2ccc(OCCn3cnc(Cl)c3Cl)cc2)c(=O)c1Br
inhibition / %: -1.35
//
Compound: CN(C)CCCOc1ccc(CN2CC[C@H](NC(=O)c3ccc(Cl)c(Cl)c3)C2)cc1Br
inhibition / %: 3.8
//
Compound: CC(C)(C)OC(=O)C1CCCN(Cc2ccc(-c3cccc(-c4nc5ccccc5[nH]4)c3)cc2)C1 (stereo not given)
inhibition / %: 3.21
//
Compound: ON=C1CCc2cc(-c3nc(-c4ccc(OCCN5CCCCC5)cc4)[nH]c3-c3ccncc3)ccc21
inhibition / %: -1.78
//
Compound: CN1CCN(CCCN(Cc2ccc(-c3ccc(CNCc4ccc5c(c4)OCO5)cc3)cc2)C(=O)Nc2ccccc2)CC1
inhibition / %: 11.6
//
Compound: Cn1nccc1C(=O)NCCNCc1ccc(-c2ccc(-c3nc4cc(F)ccc4[nH]3)cc2)cc1
inhibition / %: 1.91
//
Compound: Cc1cc(Cl)ccc1N(Cc1ccccc1)c1ccnc(Cl)n1
inhibition / %: 1.11
//
Compound: Cc1[nH]c2ccc(-c3ccccc3)cc2c(=O)c1Br
inhibition / %: 1.91

###

Target or system: Solute carrier family 2, facilitated glucose transporter member 1 (Homo sapiens) (UniProt P11166)
Assay remarks: ST_JUDE_LEISH: Cytotoxicity at 2uM final concentration against transgenic Leishmania Mexicana promastigotes LmGLUT1 that are glucose transport deficient and complemented with the human glucose transporter GLUT1. Activity is measured by DNA content using SYBR green in vitro
Type: functional
Below: a set of entries, each annotated with reported inhibition.
Readout label: inhibition (%)

Compound: Cc1cccc(Nc2nccc(Nc3cccc(C(=O)NCCN4CCOCC4)c3)n2)c1
Readout label: inhibition
Recorded value: 2.19
//
Compound: CCCCCN1CCC(NS(=O)(=O)c2cccc(C(=O)Nc3cccc(C(F)(F)F)c3)c2)C1 (stereo not given)
Readout label: inhibition
Recorded value: 1.68
//
Compound: CS(=O)(=O)CCNCc1ccc(-c2ccc3c(Nc4ccc(Oc5ccccn5)cc4)ccnc3c2)o1
Readout label: inhibition
Recorded value: 1.24
//
Compound: Cc1ccccc1C1CCN(C2CCC(NC(=O)/C=C/c3cccc(F)c3)CC2)CC1 (stereo not given)
Readout label: inhibition
Recorded value: 6.96
//
Compound: CCCCCOc1ccc(C=NNc2nc(O)cc(-c3ccccc3)n2)cc1
Readout label: inhibition
Recorded value: 2.62
//
Compound: CN1CCC(c2csc3ccc(NC(=O)Nc4ccc(-c5ccncc5)c5ccccc45)cc23)CC1
Readout label: inhibition
Recorded value: -0.99
//
Compound: N=C(Nc1nc(-c2ccccn2)cc2ccccc12)c1cccc(Cl)c1
Readout label: inhibition
Recorded value: 50.7
//
Compound: COc1ccc2cc(-c3nc(-c4c(Cl)cccc4Cl)[nH]c3-c3ccnc(NCCCN4CCCCC4C)c3)ccc2c1 (stereo not given)
Readout label: inhibition
Recorded value: 0.59
//
Compound: O=c1c2c([nH]c3cc(Cl)ccc13)CCCC2
Readout label: inhibition
Recorded value: 4.95
//
Compound: CCCN(CCC)CC(O)COc1ccccc1C(=O)Nc1ccccc1 (stereo not given)
Readout label: inhibition
Recorded value: 1.49

###

Below: a set of entries, each annotated with reported inhibition.
Target or system: Hexose transporter 1 (Plasmodium falciparum) (UniProt O97467)
Assay remarks: ST_JUDE_LEISH: Cytotoxicity at 2uM final concentration against transgenic Leishmania Mexicana promastigotes LmPfHT that are glucose transport deficient and complemented with the Plasmodium falciparum hexose transporter. Activity is measured by DNA content using SYBR green in vitro
Type: functional
Readout label: inhibition (%)

Structure smiles string: O=C(Nc1cccc(CN2CCCN(Cc3ccc(O)cc3)CC2)c1)c1ccc(Br)cc1
Target or system: Hexose transporter 1 (Plasmodium falciparum) (UniProt O97467)
Recorded value: 0.85

Structure smiles string: Cc1ccc(NC(=O)c2ccc(CN3CCCN(CC4CCCCC4)CC3)cc2)cc1F
Target or system: Hexose transporter 1 (Plasmodium falciparum) (UniProt O97467)
Recorded value: 6.75

Structure smiles string: CN1CCC(NCc2ccc(-c3ccc(S(=O)(=O)NCc4ccccc4)cc3)cc2)CC1
Target or system: Hexose transporter 1 (Plasmodium falciparum) (UniProt O97467)
Recorded value: -1.45

Structure smiles string: Oc1ccc2nc(NCCCc3ccccc3)nc(NCCc3ccccc3)c2c1
Target or system: Hexose transporter 1 (Plasmodium falciparum) (UniProt O97467)
Recorded value: 4.97

Structure smiles string: Cn1cc(-c2ccccc2C(=O)O)c(=O)c2cc(Cl)ccc21
Target or system: Hexose transporter 1 (Plasmodium falciparum) (UniProt O97467)
Recorded value: 1.87

###

Target or system: Hexose transporter 1 (Plasmodium falciparum) (UniProt O97467)
Assay remarks: ST_JUDE_LEISH: Cytotoxicity at 2uM final concentration against transgenic Leishmania Mexicana promastigotes LmPfHT that are glucose transport deficient and complemented with the Plasmodium falciparum hexose transporter. Activity is measured by DNA content using SYBR green in vitro
Format: functional
Readout label: inhibition (%)

Compound: O=C(/C=C/c1ccc(Cl)cc1)NCCCCCN1CCC(C(=O)Nc2ccc(Cl)cc2)CC1
Readout label: inhibition
Recorded value: 0.51

Compound: COc1ccc(NC(=O)c2ccc(Br)c(C)c2)cc1N1CCN(CCCCc2ccccc2)CC1
Readout label: inhibition
Recorded value: 0.21

Compound: Cc1ccc2c(c1)c(-c1ccccc1)c(-c1ccccc1)n2CC(O)CN1CCN(CC=Cc2ccccc2)CC1 (centres undefined)
Readout label: inhibition
Recorded value: 1.97

Compound: CS(=O)(=O)NCCCNCc1ccc(-c2ccc(-c3nc4cc(C(F)(F)F)ccc4[nH]3)cc2)cc1
Readout label: inhibition
Recorded value: 2.39

Compound: O=C(NCC1CC1)C1CCN(C(c2ccccc2)c2ccc(Cl)c(Cl)c2)CC1 (centres undefined)
Readout label: inhibition
Recorded value: 1.49

Compound: COc1ccc(-c2ccc(NC(=O)c3ccc(Cl)cc3)cc2)cc1CN1CCCN(C)CC1
Readout label: inhibition
Recorded value: 4.81

Compound: NC(=O)c1ccsc1NC(=O)CNC(c1ccc(F)cc1)c1cccs1 (centres undefined)
Readout label: inhibition
Recorded value: 2.01

Compound: O=C(NCCCCN1CCC(c2ccc3c(c2OCCO)CCCC3)CC1)c1ccc2oc(-c3ccc(C(F)(F)F)cc3)cc2c1
Readout label: inhibition
Recorded value: 2.49

Compound: N#Cc1cncc(-c2nc3c(N4CCC(Cc5ccccc5)CC4)cccc3n2CCNCc2ccccc2)c1
Readout label: inhibition
Recorded value: 4.45

The values you see were collected from ChEMBL document CHEMBL3433997.
